Target: SARS-CoV-2 Omicron BA.1 (B.1.1.529) RBD (SARS-CoV-2 Omicron BA.1 (B.1.1.529), strain)
Property measured: binding result

{"Binder": "YB13-281 (antibody, V domains shown) VH: EVQLVESGGGLVKPGGSLRLSCAASGFTFSSYSMNWVRQAPGKGLEWVSSISSSSSYIHYADSVKGRFTISRDNAKNSLYLQMNSLRAEDTAVYYCARVSSKDYYDRSGYLRGDYDYGMDVWGQGTTVTVSS VL: QSVLTQPPSVSGAPGQRVTISCTGNSSNIGAAYDVHWYQQLPGTAPKLLIYGNSNRPSGVPDRFSGSKSGTSASLAITGLQAEDEADYYCQSYDSSLSGVFGGGTKLTVL", "Result": "binds"}
{"Binder": "YB12-187 (antibody, V domains shown) VH: EVQLVESGGGLVKPGGSLRLSCAASGFIFSTYSMNWVRQAPGKGLEWVSSISSFSTYIYYADSVKGRFTISRDNAKNSLYLQMNSLRAEDTAVYYCASGQMYSGSYPSGDYFDYWGQGTLVTVSS VL: LSVLTQPPSVSGAPGQRVTISCTGSSSNIGADYDVHWYQQLPGTAPKLLIYGNTNRPSGVPDRFSGSKSGTSASLAITGLQAEDEAHYYCQSYDTSLSGVVFGGGTKLTVL", "Result": "binds"}
